Target: Ataxin-2 (Homo sapiens) (UniProt Q99700)
Sequence (Q99700 whole entry): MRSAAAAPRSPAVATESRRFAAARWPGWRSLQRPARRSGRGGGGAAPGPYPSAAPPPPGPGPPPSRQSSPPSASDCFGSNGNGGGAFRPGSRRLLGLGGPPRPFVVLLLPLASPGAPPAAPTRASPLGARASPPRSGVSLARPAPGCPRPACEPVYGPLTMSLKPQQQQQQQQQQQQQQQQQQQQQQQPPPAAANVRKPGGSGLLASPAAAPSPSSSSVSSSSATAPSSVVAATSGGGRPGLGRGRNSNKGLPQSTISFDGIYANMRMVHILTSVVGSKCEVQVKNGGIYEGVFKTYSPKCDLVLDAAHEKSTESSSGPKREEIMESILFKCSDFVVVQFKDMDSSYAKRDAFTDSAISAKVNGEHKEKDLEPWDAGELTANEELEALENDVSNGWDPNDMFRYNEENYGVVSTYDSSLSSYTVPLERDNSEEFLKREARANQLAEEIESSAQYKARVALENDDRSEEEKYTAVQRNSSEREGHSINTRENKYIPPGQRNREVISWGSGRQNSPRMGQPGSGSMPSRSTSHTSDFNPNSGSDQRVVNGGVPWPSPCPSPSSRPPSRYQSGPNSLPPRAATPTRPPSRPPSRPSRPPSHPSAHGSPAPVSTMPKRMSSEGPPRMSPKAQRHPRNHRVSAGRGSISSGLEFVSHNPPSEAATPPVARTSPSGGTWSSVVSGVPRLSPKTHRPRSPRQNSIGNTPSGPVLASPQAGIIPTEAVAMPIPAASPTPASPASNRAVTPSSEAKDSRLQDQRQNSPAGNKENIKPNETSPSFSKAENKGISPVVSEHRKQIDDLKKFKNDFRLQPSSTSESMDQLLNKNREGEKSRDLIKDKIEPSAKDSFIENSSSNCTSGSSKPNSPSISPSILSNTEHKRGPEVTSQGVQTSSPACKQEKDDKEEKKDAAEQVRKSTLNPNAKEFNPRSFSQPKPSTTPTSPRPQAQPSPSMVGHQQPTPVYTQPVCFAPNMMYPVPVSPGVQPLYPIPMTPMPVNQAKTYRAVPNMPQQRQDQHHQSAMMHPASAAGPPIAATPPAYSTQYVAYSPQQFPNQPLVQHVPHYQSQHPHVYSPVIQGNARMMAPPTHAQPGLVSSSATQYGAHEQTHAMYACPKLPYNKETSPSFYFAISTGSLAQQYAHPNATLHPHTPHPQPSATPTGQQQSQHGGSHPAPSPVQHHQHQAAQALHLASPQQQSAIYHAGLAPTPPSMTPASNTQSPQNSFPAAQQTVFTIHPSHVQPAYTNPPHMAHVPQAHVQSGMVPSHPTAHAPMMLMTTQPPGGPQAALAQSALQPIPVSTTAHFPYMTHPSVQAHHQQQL
Test: qHTS for Inhibitors of ATXN expression.
Type: functional
Out of some 400,000 compounds screened, about 2,100 (0.53%) were called active. About 14% were inconclusive and are not listed. How the calls were made is not given here. The sample as a whole holds a higher share of actives than the screen did.
Result category, one only: active, inactive

Illustrative cases are given below, each with its answer.
INSERT INTO measurements (compound, class_name) VALUES
  ('COc1ccc(CNc2nc3ccccc3n2C(C)C)c(O)c1', 'inactive'),
  ('CCN(CC)C(=O)[C@H]1CC(CC(=O)NCc2cccc(C(F)(F)F)c2)C(=O)N2CCc3c([nH]c4ccccc34)[C@]12C (stereo partly specified)', 'active'),
  ('COC(=O)c1ccc(C2C(C#N)=C(N)Oc3cc(O)ccc32)cc1 (stereo unspecified)', 'inactive'),
  ('CCN(CC)C(=O)[C@H]1CC(CC(=O)NCC23C[C@H]4C[C@@H](C2)C[C@@H](C3)C4)C(=O)N2CCc3c([nH]c4ccccc34)[C@]12C (stereo partly specified)', 'active'),
  ('CCc1nnc(NC(=O)CSc2n[nH]c3c4ccccc4nc-3n2)s1', 'inactive');

Exercise: Outcome? `c1ccc(-c2cnn3c(-c4ccccc4)c(-c4ccccc4)nc3n2)cc1`
Solution: inactive

Exercise: Moving on to `COC(=O)c1ccc(NCc2cc(O)ccc2O)cc1O`
Solution: active

Exercise: How about this compound: Cn1c(SCC(=O)NCC2CCCO2)ncc(C(=O)Nc2ccc(Cl)cc2)c1=O (stereo unspecified)
Solution: active

Exercise: Can you check COc1ccc(C2=CC(c3cccc(C)c3)n3nnnc3N2)cc1 (stereo unspecified) next?
Solution: inactive

Exercise: And then `CC(=O)Nc1cccc(NC(=O)CSc2ncc(C(=O)Nc3ccccc3)c(=O)n2C)c1` , what is it?
Solution: active

Exercise: Try this compound next: CC(Sc1nc(-c2ccc(F)cc2)cs1)C(=O)N1c2ccccc2CC1C (stereo unspecified)
Solution: inactive

====

Biological target: Ataxin-2 (Homo sapiens) (UniProt Q99700)
Assay: qHTS for Inhibitors of ATXN expression.
Type: functional
Among all 400,000 compounds or so, about 2,100 (0.53%) were called active. Roughly 14% stayed inconclusive and do not appear here. The rule behind the calls is not given here. Only a selection was taken, and actives are over-represented in it overall.
Valid outcomes are listed here; reply with one: active, inactive

INSERT INTO measurements (compound, class_name) VALUES
  ('CN(C(=O)CSc1nc2ccc(NC(=O)c3ccco3)cc2s1)c1ccccc1', 'active'),
  ('O=C(CSc1nnc(NC(=O)c2ccco2)s1)NCc1ccc2c(c1)OCO2', 'inactive'),
  ('C=C(C)CSc1cc(C)c(C#N)c2nc3ccccc3n12', 'inactive'),
  ('COCc1cc(C)nc2sc(C(=O)Nc3cccc(OC)c3)c(N)c12', 'inactive'),
  ('Cc1ccc(C(=O)Nc2ccc3c(c2)OCO3)cc1NC(=O)c1ccco1', 'inactive'),
  ('CN(Cc1ccccc1)C(NC(=O)c1ccco1)C(Cl)(Cl)Cl (stereo unspecified)', 'inactive'),
  ('Cc1[nH]n(-c2nc(-c3ccc(Cl)cc3)cs2)c(=O)c1N=Nc1ccc(O)cc1', 'active'),
  ('O=C(O)c1cc(-c2c[nH]c3ccccc23)nc2ccc3ccccc3c12', 'inactive'),
  ('CN(C(=O)c1ccc(NC(=O)c2ccco2)cc1)c1ccccc1', 'active'),
  ('CC(=O)NC(=Nc1ccc(C)cc1Cl)Nc1nc(C)cc(C)n1', 'inactive');

# input for lookup
Exercise: Please state the recorded outcome for this compound: CC(C)c1ccc(C2=CC(c3ccc(C(C)C)cc3)n3nnnc3N2)cc1 (stereo unspecified)
Solution: inactive

====

Biological target: Ataxin-2 (Homo sapiens) (UniProt Q99700)
Assay: qHTS for Inhibitors of ATXN expression.
Assay type: functional
Screen size: about 400,000 compounds; about 2,100 (0.53%) were called active. Roughly 14% stayed inconclusive and do not appear here. No rule for the calls is given here. This excerpt belongs to a sample that is enriched for actives.
Field 'call' accepts YES for active, NO for inactive

Exercise: Entry `COc1ccc(NC(=O)Cn2nc(C(=O)O)c3ccccc3c2=O)cc1Cl` : call = ?
Solution: NO

Exercise: Ok, now `CSc1cccc(NC(=S)N(CCCN2CCCC2)Cc2cccn2Cc2ccc(Cl)cc2)c1`
Solution: YES

Exercise: Please do the same for `O=c1c(O)c(-c2cccs2)oc2ccc(Cl)cc12` as well.
Solution: NO

Exercise: Query `Cc1ccc(NC(=S)N(CCCN2CCCC2)Cc2cccn2Cc2ccc(Cl)cc2)cc1` next
Solution: YES

Exercise: What about this molecule? `COc1ccc(OC)c(NC(=O)c2cnc(Nc3ccc(C)c(Cl)c3)c3ccccc23)c1`
Solution: NO

====

Molecular target: Ataxin-2 (Homo sapiens) (UniProt Q99700)
Assay: qHTS for Inhibitors of ATXN expression.
Assay type: functional
Screen size: about 400,000 compounds; about 2,100 (0.53%) were called active. Inconclusive results (about 14%) are left out. How the calls were made is not given here. For the sample, actives were picked, then their nearest neighbours and some compounds at random.
Please reply with one of these outcomes: 1.0 for active, 0.0 for inactive

Check out these entries, answers already filled in.
INSERT INTO assay_data (compound, class_name) VALUES
  ('CCCCCn1c(N2CCC(Cc3ccccc3)CC2)nc2c1c(=O)[nH]c(=O)n2C', 1.0),
  ('COc1ccc(Cl)cc1-c1n[nH]c(SCC(=O)NC2CC2)n1', 0.0),
  ('CSCCC(NC(=O)C1CCCC1)c1nnc2ccccn12 (stereo not given)', 0.0);

Exercise: Dear all, I need the recorded test outcome for `Cn1c(=O)[nH]c(=O)c2c1nc(N1CCCCCC1)n2Cc1cccc2ccccc12` , thank you.
Solution: 1.0

Exercise: What do we get for `O=C(CSc1nnc(-c2ccccc2F)n1C1CC1)Nc1ccc2[nH]c(O)nc2c1` ?
Solution: 0.0

Exercise: Now try `COc1ccccc1NC(=O)c1sc2nc(C)c(C(=O)Nc3ccc(C)cc3C)c(-c3cccs3)c2c1N` .
Solution: 0.0

Exercise: Entry to check: C=C1C(=O)OC2C=C(CO)C3OC3C3OC3(C)CC(OC(=O)/C(=C/C)COC(C)=O)C12 (stereo not given)
Solution: 1.0

Exercise: And what about the compound `COc1ccc(NC(=O)CSc2nc(C)cs2)c(OC)c1` ?
Solution: 0.0

Exercise: Now this one: `O=C(Nc1ccc(NC(=O)C2CC2)nc1)c1cnccn1`
Solution: 0.0

Exercise: And then `COC(=O)c1cscc1S(=O)(=O)Cc1ccccc1` , what is it?
Solution: 0.0

====

Target: Ataxin-2 (Homo sapiens) (UniProt Q99700)
Assay: qHTS for Inhibitors of ATXN expression.
Type: functional
The whole screen tested about 400,000 compounds, of which about 2,100 (0.53%) were called active. Roughly 14% stayed inconclusive and do not appear here. No rule for the calls is given here. The list comes from a sample in which actives are over-represented; it also holds close analogues and randomly drawn compounds.
Please state which outcome applies, choosing from t (active), f (inactive)

INSERT INTO assay_data (molecule, class_name) VALUES
  ('COC(=O)c1ccc(N2C(c3cc(OC)cc(OC)c3)=Cc3ccc(-c4cccnc4)cc3C2CC(=O)C2CC2)cc1 (stereo not given)', 'f'),
  ('Nc1[nH]c(C(=O)c2ccccc2)c(-c2ccc(F)cc2)c1C(=O)NCCc1c[nH]c2ccccc12', 't'),
  ('O=C(CCCc1c[nH]c2ccccc12)Nc1ccc2ccccc2c1', 'f');

Exercise: Dear colleague, could you share the recorded outcome for `Cc1ccc(N=C(S)NCCc2c[nH]c3ccccc23)c(C)c1` when you have a moment?
Solution: f

Exercise: Same lookup for `Nc1[nH]c(C(=O)c2ccccc2)c(-c2ccc(Cl)c(F)c2)c1C(=O)NCCc1c[nH]c2ccccc12` , please.
Solution: t

====

Biological target: Ataxin-2 (Homo sapiens) (UniProt Q99700)
Assay: qHTS for Inhibitors of ATXN expression.
Format: functional
The campaign covered roughly 400,000 compounds. About 2,100 (0.53%) were called active. Inconclusive results (about 14%) are left out. How the calls were made is not given here. The sample as a whole holds a higher share of actives than the screen did.
Write down one outcome, taken from True for active, False for inactive

Some solved cases for reference:
INSERT INTO results (molecule, assayed_target, class_name) VALUES
  ('CCOC(=O)c1cnc(-n2nc(C)cc2C)nc1Nc1ccc(O)cc1', 'Ataxin-2 (Homo sapiens) (UniProt Q99700)', 'False'),
  ('CN(NC(=O)COc1ccccc1)C1=NS(=O)(=O)c2ccccc21', 'Ataxin-2 (Homo sapiens) (UniProt Q99700)', 'False'),
  ('CN(C)CCCN(C(=O)c1cccs1)c1nc2cc3c(cc2s1)OCO3', 'Ataxin-2 (Homo sapiens) (UniProt Q99700)', 'False'),
  ('Cc1occc1-c1nnc(SCC(=O)NC2CCCCC2)o1', 'Ataxin-2 (Homo sapiens) (UniProt Q99700)', 'False'),
  ('CCOc1ncccc1C(=O)NC(C)CCc1ccccc1 (stereo not drawn)', 'Ataxin-2 (Homo sapiens) (UniProt Q99700)', 'False');

Exercise: # lookup: test call for `CC(C)c1cccc(C(C)C)c1N=C(S)Nc1cccc(Cl)c1`
Solution: False

Exercise: // next record `CN(C)CCCN(C(=O)c1ccco1)c1nc2ccc(Cl)cc2s1`
Solution: True

Exercise: What do you have for `CCOc1ncccc1C(=O)OCC(=O)NC(=O)NC(C)C` ?
Solution: False

Exercise: Moving on to the next molecule: `Cc1ccc2nc(N(CCCN(C)C)C(=O)c3ccc4c(c3)CCCC4)sc2c1`
Solution: True

Exercise: For `CCOc1cc(/C=C2/C(=O)ON=C2C)cc(Br)c1O` then?
Solution: False

Exercise: Now try CN(C)C(CN=C(S)Nc1cccc(Cl)c1)c1cccnc1 (stereo not drawn) .
Solution: False

Exercise: Check `CN(C)CCCN(C(=O)c1ccc2c(c1)CCCC2)c1nc2ccc(Cl)cc2s1` too.
Solution: True

Exercise: Item: Cc1cccc(OCc2n(C)c3ccccc3[n+]2CC(=O)OC2CC(C)CCC2C(C)C)c1 (stereo not drawn)
Solution: True

Exercise: // query: `CCOc1ncccc1C(=O)Nc1nc(C(C)(C)C)cs1`
Solution: True

Exercise: Next: Cc1ccc(-c2nc(C[S+]([O-])CC(=O)NC3CC3)c(C)o2)cc1 (stereo not drawn)
Solution: False

Exercise: Next molecule up: `C=CCN=C(S)Nc1ccc(C(N)=O)cc1`
Solution: False

Exercise: What about this molecule? `O=C(NCc1cccc(F)c1)c1cccc2c1C(=O)c1ccc(N3CCC(Cc4ccccc4)CC3)cc1S2(=O)=O`
Solution: False

// provenance: ChEMBL document CHEMBL1201862
